- Test system: M14 melanoma
- EXPERIMENT DESCRIPTION: NCI tumour cell line growth inhibition, 48 h
READOUT LABEL: TGI

**Query** I have this compound here, CC(=NNC(=S)Nc1ccccc1)c1cccc(C(C)=NNC(=S)Nc2ccccc2)n1 , and I need its recorded TGI.
**Result** 21.2 µM

**Query** Would you kindly share the measured TGI for C=CCC1(c2ccc(OC)cc2)C=CC(=O)CC1 (stereo not drawn) ?
**Result** > 100 µM

**Query** Report TGI for COC(=O)/C=C\C(C#N)(C#N)N=Cc1ccc(C)cc1 please.
**Result** 4.42 µM

**Query** Looking for the measured TGI of O=C1NC2c3c(I)sc(I)c3C(O)C2O1 (stereo not drawn) , can you help?
**Result** > 100 µM

**Query** Given Cc1nc(Nc2cccnc2)sc1C(=O)/C=C/c1ccc(F)cc1 , state its recorded TGI.
**Result** 12.9 µM

**Query** Any idea what TGI was measured for CCN1CN(c2ccccc2)C2(CCN(CC3COc4ccccc4O3)CC2)C1=O (stereo not drawn) ?
**Result** 4.99 µM

**Query** Need TGI of COc1cc(C(=O)N2CCN(C(=O)c3cc(OC)c(OC)c(OC)c3)C2=S)cc(OC)c1OC , thanks.
**Result** 34 µM

**Query** Form field: reported TGI of COc1ccc(N2C(=O)CC(=O)N(NC(=O)C(C)Oc3ccccc3C)C2=S)cc1 (stereo not drawn)
**Result** > 100 µM

**Query** Need TGI of O=C(CC1C(=O)Nc2ccccc2S1=O)Nc1cc(Cl)ccc1Cl (stereo not drawn) , thanks.
**Result** > 100 µM

**Query** Using the record for C=C(C(=O)OCC)C(=O)OCC , report its TGI.
**Result** > 100 µM

**Query** Recorded TGI of O=c1oc2cc(O)ccc2c(O)c1C(c1ccccc1)c1c(O)c2ccc(O)cc2oc1=O , please.
**Result** > 100 µM

**Query** Endpoint output: TGI of O=C1C=C/C(=N\N=C(c2ccccc2)c2ccccc2)O1 . Value?
**Result** > 10 µM

**Query** Which measured TGI value corresponds to COc1cc(N=Nc2ccc(O)c3ncccc23)c2ncccc2c1 ?
**Result** > 100 µM

**Query** // TGI lookup, key: COc1ccc(C(=O)Nc2ccc(O)c(=O)cc2)cc1
**Result** > 100 µM

**Query** Could you tell me which TGI is on file for On1c(-c2ccccc2)c(-c2ccccc2N2CCCC2)c2ccccc21 ?
**Result** > 100 µM

**Query** Fill in: TGI of Nc1ncn([C@@H]2O[C@H](CO)[C@@H](O)[C@H]2O)c(=O)n1 is ___
**Result** 10.8 µM

**Query** I would be grateful if you could share the reported TGI for COc1cc(Cl)cc(-c2nn(-c3cccc(NC(=O)c4ccc(N5CCOCC5)c(C(F)(F)F)c4)c3)cc2-c2ccncc2)c1 .
**Result** > 100 µM

**Query** Looking for the measured TGI of CCNC(=S)NNC(=O)C12CC3CC(CC(C3)C1)C2 , can you help?
**Result** > 100 µM

**Query** Please look up its TGI: Cc1cc(/N=C/c2ccc(N(C)C)cc2)n(-c2ccccc2)n1
**Result** > 100 µM

**Query** What value of TGI has been reported for the following compound? CCOc1ccc(/C=C2\N=C(c3ccc([N+](=O)[O-])cc3)OC2=O)cc1
**Result** > 100 µM

**Query** For the compound shown here, NNC(=O)CNc1cccc(Br)c1 , give the reported TGI.
**Result** > 100 µM

**Query** Would you kindly share the measured TGI for O=C(Nc1ccc(Br)cc1F)c1cc(Cl)ccc1O ?
**Result** 3.58 µM

**Query** Query (compound): BrC(=C(c1ccc(OC2CCCCO2)cc1)c1ccc(OC2CCCCO2)cc1)c1ccccc1 (stereo not drawn) ; field requested: TGI
**Result** > 100 µM

src = PubChem BioAssay (NCI)
